- target under test: T1, human CD70, recombinant, N-terminally biotinylated (residues 39-193) (human, UniProt P32970 39-193, N-terminal biotin)
- T1 chain: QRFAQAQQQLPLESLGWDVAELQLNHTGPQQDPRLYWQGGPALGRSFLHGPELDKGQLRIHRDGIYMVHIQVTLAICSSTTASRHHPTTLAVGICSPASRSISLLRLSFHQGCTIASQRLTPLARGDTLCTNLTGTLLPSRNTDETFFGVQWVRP
- protocol: Octet BLI
Cut-off 0.04 nM on Kd: below means TRUE, at or above means FALSE.

binder | category
R3aP9D10 VHH (VHH) VHH: QVQLQESGGGLVQAGGSLRLSCAAPGFTFDAYAIGWFRQAPGKEREGVICLSPSDGSTYYADSVKGRFTISSDNAKNTVYLQMNSLKPEDTAVYYCATPSWCSLKADFGSWGQGTQVTVSS | TRUE
human CD27 fused to human Fc domain (Fc fusion) TPAPKSCPERHYWAQGKLCCQMCEPGTFLVKDCDQHRKAAQCDPCIPGVSFSPDHHTRPHCESCRHCNSGLLVRNCTITANAECACRNGWQCRDKECTECDPLPNPSLTARSSQALSPHPQPTHLPYVSEMLEARTAGHMQTLADFRQLPARTLSTHWPPQRSLCSSDFIRI | FALSE
R3P5A1 VHH (VHH) VHH: QVQLQESGGGLVQPGGSLRLSCTASGSIFSATRMEWYRQAPGKQRELVAIVTSGGRTNYADSVNGRFTISRDNAKNTLYLQMNNLKPEDTAVYYCKFERYDYVNYWGRGTQVTVSS | TRUE
R3aP3E8 VHH (VHH) VHH: QVQLQESGGGLVQPGGSLRLSCVASGSIFSIARMNWYRQAPGKQRELVAILNRAGRTDYADSVKGRFTISSDNAKTTVYLQMNSLKPEDTALYYCNLQTISYHDFWGQGTQVTVSS | TRUE
R3P3H12 VHH (VHH) VHH: QVQLQESGGGLVQTGGSLRLSCTASGSIFDIVRGSWYRQAPGNQRELVAIITSGGATNYADSVAGRFTISRDSAWKALYLQMNSLKPEDTAVYFCNMESVRYRNYWGQGTQVTVSS | FALSE
